Test system: IGROV1 ovarian
Test: NCI tumour cell line growth inhibition, 48 h
Readings of GI50 for the listed molecules

Example cases with answers are listed next.
Molecule	Target	Result
NC1CCC(Nc2nc(NCc3cc(Cl)ccc3O)c3ncn(C4CCCC4)c3n2)CC1 (centres undefined)	IGROV1 ovarian	0.204 µM
O=c1c2c(c3ccccc3n1-c1ccccc1)NC(=S)NC2c1ccc(Cl)cc1 (centres undefined)	IGROV1 ovarian	4.57 µM
CN(C)CCC=C1c2ccccc2C(C)(C)c2ccccc21	IGROV1 ovarian	15.9 µM

Looking up O=C1CCCCC=C1C[N+](=O)[O-] , I see its GI50 listed as 33 µM

Looking up COC(=O)C[CH2][Ge]([CH3])([CH3])[S]c1ccccc1 , I see its GI50 listed as 1.25 µM
